# TARGET_UNDER_TEST: Neu5Gc(a2-3)Gal(b1-4)Glc
# METHOD_DESCRIPTION: glycan array binding signal (z-score within array); higher = stronger binding
# CONDITION_INFO: glycan notation: IUPAC condensed, linker removed
This excerpt belongs to a sample that is enriched for the strongest signals.
Use -0.1 as the dividing line for glycan array binding signal (z-score), with the line itself on the yes (1) side and lower values as no (0).

Past entries and their recorded results:
BINDER	GROUP_LABEL
GH98CBM (Clostridium perfringens) (protein) EVYALEESRDVYLSDLDWLNATHGDDTKSKIVQKNHPFTPGNNNQSTKISLKMEDGSISEFEKGLGTIAGSPSTITYDISGAGVTKFFSYLGIDRSANPINEQYAKVDKIEVVVDGKVIYSTINQFPNGLTYETPAIKVDLNIPENAKRLQLKSYAGEKTWGDEVVYADAKFTAKGDFVN	no (0)
RSVL (Crotalus atrox), P21963 (protein) NNCPLDWLPMNGLCYKIFNQLKTWEDAEMFCRKYKPGCHLASFHRYGESLEIAEYISDYHKGQENVWIGLRDKKKDFSWEWTDRSCTDYLTWDKNQPDHYQNKEFCVELVSLTGYRLWNDQVCESKDAFLCQCKF	no (0)
FaeGac (Escherichia coli) (protein) WMTGDFNGSVDIGGSITADDYRQKWEWKVGTGLNGFGNVLNDLTNGGTKLTITVTGNKPILLGRTKEAFATPVTGGVDGIPHIAFTDYEGASVVLRNPDGETNKKGLAYFVLPMKNAEGTKVGSVKVNASYAGVLGRGGVTSADGELLSLFADGLSSIFYGGLPRGSELSAGSAAAERTKLFGSLSRNDILGQIQRVNANITSLVDVAGSYRENMEYTDGTVVSAAYALGIANGQTIEATFNQAVTTSTQWSAPLNVAITYY	no (0)
PNGase F (Flavobacterium meningosepticum) (protein) GIPAPADNTVNIKTFDKVKNAFGDGLSQSAEGTFTFPADVTAVKTIKMFIKNECPNKTCDEWDRYANVYVKNKTTGEWYEIGRFITPYWVGTEKLPRGLEIDVTDFKSLLSGNTELKIYTETWLAKGREYSVDFDIVYGTPDYKYSAVVPVVQYNKSSIDGVPYGKAHTLALKKNIQLPTNTEKAYLRTTISGWGHAKPYDAGSRGCAEWCFRTHTIAINNSNTFQHQLGALGCSANPINNQSPGNWTPDRAGWCPGMAVPTRIDVLNNSLIGSTFSYEYKFQNWTNNGTNGDAFYAISSFVIAKSNTPISAPVVTNLDPHHHHHH	yes (1)
RbmA (Vibrio cholerae), A0A2H4NFB8 (protein) MSNFKGSIMNKRHYYLASCLALLFSTASYAEVDCELQPVIEANLSLNQNQLASNGGYISSQLGIRNESCETVKFKYWLSIKGPEGIYFPAKAVVGVDTAQQESDALTDGRMLNVTRGFWVPEYMADGKYTVSLQVVAENGEVFKANQEFVKGGDLNSLPELNGLTIDIKNQFGINSVESTGGFVPFTIDLNNGREGEAKVEFWMTAVGPDGLIIPVHSREKWMIIAGNTFSKVRGINFDKSYPAGEYTINAQVVDIVSGERVEQLMTVVKK	yes (1)
AFCNVH (Aspergillus fumigatus) (protein) MSLRGFHTTCDTIVLKDKHILSSRCKRPDGTYSFSEIDLNDCLGNNNGKFVWGGESFVDSASQVNLALEGGEGRPMLHAQLNDWHGSVQSASVNLGECIQNEAGGLEYMHC	no (0)

# check: glycan array binding signal (z-score) of Epa3to2 (Candida glabrata) (protein) MGSSHHHHHHSSGLVPRGSHMKRELSSQNPFGYPIGCSPQDVAIIPGLTMELYSYPIVSGTPPNCYDASYVDPEYPRTGYLKRKMVGKSTGVTGNLNYKYSVEKACMVKYGNLPAGYNYNEPLTVSNFTMILYGYFKAQTTGLHTFFVNADDLLYINFGAGNAFDCCKREDSKTKLGEYVAYDIWHVDSSKNKVSLFLEKDLYYPIRMFFNNRDNNSSLDLSFSVNGATDQISDFSGYLYSVPDQPDTCPAHIGYDTTCR is greater than or equal to -0.1
yes (1)

# check: glycan array binding signal (z-score) of Apa (Mycobacterium tuberculosis), Rv1860 (protein) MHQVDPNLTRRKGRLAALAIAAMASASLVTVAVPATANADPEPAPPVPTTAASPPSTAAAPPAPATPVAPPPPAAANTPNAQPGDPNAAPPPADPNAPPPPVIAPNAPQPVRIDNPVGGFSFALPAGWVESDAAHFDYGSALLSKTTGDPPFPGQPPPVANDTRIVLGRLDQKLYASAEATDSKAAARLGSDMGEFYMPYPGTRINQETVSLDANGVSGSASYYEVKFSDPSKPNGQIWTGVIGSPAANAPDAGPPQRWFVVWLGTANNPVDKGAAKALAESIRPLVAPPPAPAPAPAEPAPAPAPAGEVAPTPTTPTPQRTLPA is greater than or equal to -0.1
no (0)

# check: glycan array binding signal (z-score) of LecB LY19 (Pseudomonas aeruginosa) (protein) MATQGVFTLPANTQFGVTAFANSAGTQTVNVQVNNETVATFTGQSTNNGIIGSKVLNSGGGGKVQILVSVNGRSSDLVSAQVILANELNFALVGSEDSTDNDYNDAVVVINWPLG is greater than or equal to -0.1
no (0)

# check: glycan array binding signal (z-score) of Mnn9-2N3 (Aspergillus fumigatus) (protein) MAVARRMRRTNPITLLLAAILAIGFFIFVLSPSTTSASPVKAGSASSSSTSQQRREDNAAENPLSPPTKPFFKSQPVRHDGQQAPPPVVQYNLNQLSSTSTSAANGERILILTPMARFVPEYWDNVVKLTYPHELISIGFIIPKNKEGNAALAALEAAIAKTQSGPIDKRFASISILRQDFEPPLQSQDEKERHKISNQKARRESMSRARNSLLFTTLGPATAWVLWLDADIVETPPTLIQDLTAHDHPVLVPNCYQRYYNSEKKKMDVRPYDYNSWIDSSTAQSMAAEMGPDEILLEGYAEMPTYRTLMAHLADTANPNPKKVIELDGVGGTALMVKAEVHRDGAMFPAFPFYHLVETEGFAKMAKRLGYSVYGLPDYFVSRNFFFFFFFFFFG is greater than or equal to -0.1
yes (1)

# check: glycan array binding signal (z-score) of SSR1 (Sclerotium rolfsii), A0A0M3KL30 (protein) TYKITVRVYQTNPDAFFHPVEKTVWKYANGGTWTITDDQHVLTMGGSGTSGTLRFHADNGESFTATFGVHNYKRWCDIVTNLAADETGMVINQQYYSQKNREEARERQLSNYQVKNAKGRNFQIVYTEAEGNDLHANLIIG is greater than or equal to -0.1
no (0)
